target: T-cell receptor (TCR)-CD3 interaction, human (TCR alpha chain TRAV4); assay: potency of TCR-CD3 interaction inhibitors, dose response, biochemical, fluorescence, TAMRA-labeled TCR probe (AID 686957); settings: TCR-CD3 binding
The source made the active and inactive calls. No rule for the calls is given here.
Respond with a class label; see active, inactive

Inquiry: What is the recorded call for this compound in the test? `O=C(Nc1cccc(S(=O)(=O)NC2=NCCC2)c1)c1cc(-c2ccco2)nc2ccccc12`
Reply text: inactive

Inquiry: What is the recorded call for this compound in the test? `O=C(CCc1ccc(S(=O)(=O)N2CCOCC2)cc1)N/N=C/c1ccc(O)c(O)c1O`
Reply text: inactive

Inquiry: What is the recorded call for this compound in the test? `Cn1c(O)c(/C=N/NC(=O)c2cc3ccccc3cc2O)c2ccccc21`
Reply text: inactive

Inquiry: What is the recorded call for this compound in the test? `Cc1c(NC(=S)N/N=C/c2cc([N+](=O)[O-])ccc2O)c(=O)n(-c2ccccc2)n1C`
Reply text: inactive

Inquiry: What is the recorded call for this compound in the test? `O=C(O)c1ccccc1NS(=O)(=O)c1ccc(N/N=C/c2ccc(O)c(O)c2)c([N+](=O)[O-])c1`
Reply text: inactive

Inquiry: What is the recorded call for this compound in the test? `COc1cc(OC)cc(C(=O)N/N=C/c2ccc(OC)c(COc3ccc4ccccc4c3)c2)c1`
Reply text: inactive

Inquiry: What is the recorded call for this compound in the test? `CC1CCN(S(=O)(=O)c2ccc(NC(=O)Cn3nnc(-c4ccccc4F)n3)cc2)CC1`
Reply text: inactive

Inquiry: What is the recorded call for this compound in the test? `O=C(NC(=S)NNC(=O)c1cccs1)c1ccccc1`
Reply text: inactive

Inquiry: What is the recorded call for this compound in the test? `Cc1ccc(OCC(=O)c2c(N)n(C)c(=O)n(C)c2=O)c([N+](=O)[O-])n1`
Reply text: inactive

Inquiry: What is the recorded call for this compound in the test? `C/C(=N\OCc1nc2ccccc2c(=O)n1/N=C/c1cc(C)cc([N+](=O)[O-])c1O)c1ccccc1`
Reply text: inactive

Inquiry: What is the recorded call for this compound in the test? `O=C(CNC(=O)c1ccccc1Br)N/N=C\c1cc([N+](=O)[O-])cc(Br)c1O`
Reply text: inactive

Inquiry: What is the recorded call for this compound in the test? `COC(=O)Cn1c(=NC(=O)c2cc(-c3cccs3)nc3ccccc23)sc2cc(S(N)(=O)=O)ccc21`
Reply text: inactive

Inquiry: What is the recorded call for this compound in the test? `Cc1cc(C)c(C)c(S(=O)(=O)N2CCC(C(=O)NNC(=O)c3ccccc3O)CC2)c1C`
Reply text: inactive

Inquiry: What is the recorded call for this compound in the test? `O=C(CSc1nnc(-c2ccccc2)n1Cc1ccccc1)NNC(=O)c1ccccc1O`
Reply text: inactive

Inquiry: What is the recorded call for this compound in the test? `O=c1cc(-c2ccc(O)c(O)c2)oc2c1ccc1ccccc12`
Reply text: active

Inquiry: What is the recorded call for this compound in the test? `O=C1C=C(NCCc2cc(Br)c(O)c(Br)c2)C(=O)c2ncccc21`
Reply text: inactive

Inquiry: What is the recorded call for this compound in the test? `COc1ccc(C(=O)NNC(=S)NC(=O)c2cccc([N+](=O)[O-])c2)cc1`
Reply text: inactive

Inquiry: What is the recorded call for this compound in the test? `CNC(=S)NNC(=O)c1cccn(Cc2ccc(Cl)c(Cl)c2)c1=O`
Reply text: inactive

Inquiry: What is the recorded call for this compound in the test? `O=C(NC(=S)NNC(=O)c1ccccc1O)c1cccnc1`
Reply text: inactive

Inquiry: What is the recorded call for this compound in the test? `COc1ccc(/C=N\NC(=O)c2cc(O)c(O)c(O)c2)cc1CN1CCN(c2ccc(F)cc2)CC1`
Reply text: inactive
